System: ENR+CD organoids
RUN_DESCRIPTION: Primary screen: ATP (CellTiter-Glo 3D, CTG) cell number/viability, 2.5-D 384-well ENR+CD organoids;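 note: compounds given at plating and again on day 3 over a 6-day differentiation from ENR+CV stem-cell-enriched precursors, ATP measured on day 6, plate median as control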
MEASUREMENT_SETUP: primary screen, dose 10.00 uM, standard z score
ENDPOINT: Z.CTG
One number for each entry.

Count: 3. Required value per item: Z.CTG.
1. C[C@](O)(COc1ccc(C#N)cc1)C(=O)Nc1ccc(C#N)c(C(F)(F)F)c1 [MK-2866 (GTx-024)]
2. O=C(NNc1ccccc1)c1ccncc1 [PluriSIn #1 (NSC 14613)]
3. CCCC(C)NC(=O)c1ccc(Cl)c(Cl)c1 (stereo not drawn) [NSC 405020]

1. −0.877
2. −2.038
3. −0.138

Count: 6. Required value per item: Z.CTG.
1. NC(=O)c1ccc(-c2nc(-c3ccccn3)c(-c3ccc4c(c3)OCO4)[nH]2)cc1 [SB431542]
2. COc1ccccc1S(=O)(=O)Nc1ccc2c(c1)CN(C)C(=O)N2 [PFI-1 (PF-6405761)]
3. COc1cc(OC)c(NC(=O)Nc2cc(C)on2)cc1Cl [PNU-120596]
4. C#Cc1cccc(Nc2ncnc3cc(OCCOC)c(OCCO)cc23)c1 [OSI-420]
5. CNC(=O)c1ccc2cc([C@@]3(O)CCn4cncc43)ccc2c1 [TAK-700 (Orteronel)]
6. Cn1cnc2c(F)c(Nc3ccc(Br)cc3Cl)c(C(=O)NOCCO)cc21 [Selumetinib (AZD6244)]

1. 0.370
2. −0.929
3. 0.330
4. −2.627
5. 0.219
6. −2.035
